Biological target: rat brain N-type calcium channel subunits (α1B+α2δ+β1b) (Rattus norvegicus)
Construct: expressed in transfected cells; host or cells: HEK 293
Sequence (Q02294 whole entry): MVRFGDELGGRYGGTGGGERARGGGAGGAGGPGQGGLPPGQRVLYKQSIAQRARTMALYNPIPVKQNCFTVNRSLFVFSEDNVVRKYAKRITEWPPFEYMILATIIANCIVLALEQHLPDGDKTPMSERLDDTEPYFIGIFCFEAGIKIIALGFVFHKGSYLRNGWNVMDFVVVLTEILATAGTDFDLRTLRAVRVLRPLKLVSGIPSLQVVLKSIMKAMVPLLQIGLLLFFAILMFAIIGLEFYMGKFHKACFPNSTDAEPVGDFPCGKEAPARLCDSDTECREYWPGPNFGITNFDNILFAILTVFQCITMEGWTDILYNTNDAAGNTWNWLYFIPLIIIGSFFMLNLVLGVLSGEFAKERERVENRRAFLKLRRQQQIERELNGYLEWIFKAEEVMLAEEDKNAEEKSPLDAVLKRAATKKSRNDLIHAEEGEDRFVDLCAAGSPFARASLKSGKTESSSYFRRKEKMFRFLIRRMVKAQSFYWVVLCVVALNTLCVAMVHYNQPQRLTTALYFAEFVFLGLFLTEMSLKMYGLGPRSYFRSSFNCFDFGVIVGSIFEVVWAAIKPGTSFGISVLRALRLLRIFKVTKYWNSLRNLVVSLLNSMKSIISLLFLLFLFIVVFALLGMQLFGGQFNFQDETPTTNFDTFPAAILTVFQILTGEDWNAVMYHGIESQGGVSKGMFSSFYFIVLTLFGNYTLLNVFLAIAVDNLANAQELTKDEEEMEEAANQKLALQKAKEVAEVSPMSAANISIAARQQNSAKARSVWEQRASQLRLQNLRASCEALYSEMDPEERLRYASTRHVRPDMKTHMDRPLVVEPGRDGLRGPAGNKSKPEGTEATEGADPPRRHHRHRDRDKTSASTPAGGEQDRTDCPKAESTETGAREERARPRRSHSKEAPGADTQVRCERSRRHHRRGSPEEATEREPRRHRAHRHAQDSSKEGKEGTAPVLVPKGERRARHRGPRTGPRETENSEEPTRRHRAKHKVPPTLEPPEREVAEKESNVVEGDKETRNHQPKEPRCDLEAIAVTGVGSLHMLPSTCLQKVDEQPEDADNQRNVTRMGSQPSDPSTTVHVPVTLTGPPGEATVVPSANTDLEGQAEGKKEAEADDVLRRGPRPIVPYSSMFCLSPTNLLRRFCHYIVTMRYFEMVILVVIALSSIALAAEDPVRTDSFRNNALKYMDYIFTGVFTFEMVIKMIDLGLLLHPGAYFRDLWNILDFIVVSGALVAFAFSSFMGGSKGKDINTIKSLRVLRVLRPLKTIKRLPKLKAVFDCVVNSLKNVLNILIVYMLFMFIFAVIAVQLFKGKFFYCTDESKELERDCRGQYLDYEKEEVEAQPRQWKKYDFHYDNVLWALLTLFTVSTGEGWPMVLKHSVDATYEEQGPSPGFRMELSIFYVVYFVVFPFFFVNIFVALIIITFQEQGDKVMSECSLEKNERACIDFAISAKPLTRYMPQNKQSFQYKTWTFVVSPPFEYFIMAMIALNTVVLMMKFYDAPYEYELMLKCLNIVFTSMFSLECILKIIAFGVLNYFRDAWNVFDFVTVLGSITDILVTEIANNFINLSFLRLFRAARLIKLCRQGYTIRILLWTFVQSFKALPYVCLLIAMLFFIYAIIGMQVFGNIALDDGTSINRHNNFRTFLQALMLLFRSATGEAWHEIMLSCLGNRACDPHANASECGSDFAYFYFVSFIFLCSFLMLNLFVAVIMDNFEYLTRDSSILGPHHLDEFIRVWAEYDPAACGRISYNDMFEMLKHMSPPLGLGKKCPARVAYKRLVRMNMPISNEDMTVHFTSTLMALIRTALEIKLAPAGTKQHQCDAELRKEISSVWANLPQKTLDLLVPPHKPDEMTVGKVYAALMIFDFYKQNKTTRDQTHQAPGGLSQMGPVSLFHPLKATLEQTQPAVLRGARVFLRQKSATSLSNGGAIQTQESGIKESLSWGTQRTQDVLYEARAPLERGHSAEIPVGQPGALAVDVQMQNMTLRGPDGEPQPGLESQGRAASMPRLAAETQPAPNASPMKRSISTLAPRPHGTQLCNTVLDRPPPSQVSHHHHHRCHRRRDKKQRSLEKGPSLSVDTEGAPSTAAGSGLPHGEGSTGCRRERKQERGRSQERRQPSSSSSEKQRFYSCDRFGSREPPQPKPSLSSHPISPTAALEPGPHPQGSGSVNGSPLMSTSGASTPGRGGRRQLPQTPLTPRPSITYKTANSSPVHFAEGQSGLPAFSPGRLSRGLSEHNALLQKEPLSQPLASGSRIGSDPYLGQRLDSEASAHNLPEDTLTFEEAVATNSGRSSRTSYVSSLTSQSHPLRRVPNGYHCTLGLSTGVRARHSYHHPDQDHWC
Test: N-type calcium channel block, whole cell patch clamp in HEK 293 cells
Type: cell-based
Conditions: low frequency stimulation 0.067 Hz (tonic block), holding −80 mV to +10 mV, 5 mM Ba; read-out: IC50 at 0.067 Hz
Experimental: Antagonist activity was measured using whole cell patch recordings on human embryonic kidney cells either stably or transiently expressing rat α1B+α2δ+β1b channels (N-type channels) with 5 mM barium as a charge carrier. P/Q-type channels (α1A+α2δ+β1b cDNA subunits) and L-type channels (α1C+α2δ+β1b cDNA subunits) were also transiently expressed in HEK 293 cells. […]
pIC50: −log10 of the molar value.
Assay endpoint: pIC50

Molecule	Experimental target	Result number
CN(C)CCOc1c(C(C)(C)C)cc(C(=O)N2CCC(CNC(=O)CCCCC(c3ccc(F)cc3)c3ccc(F)cc3)C2)cc1C(C)(C)C (stereo not shown) [Compound P23]	rat brain N-type calcium channel subunits (α1B+α2δ+β1b) (Rattus norvegicus)	6.39
O=C(COc1ccc(F)cc1F)NCC1CCN(C(=O)CCCCC(c2ccc(F)cc2)c2ccc(F)cc2)C1 (stereo not shown) [Compound P31]	rat brain N-type calcium channel subunits (α1B+α2δ+β1b) (Rattus norvegicus)	6.25
CC(C)(C)c1cc(C(=O)N2CCC(CNC(=O)CCCCC(c3ccc(F)cc3)c3ccc(F)cc3)C2)cc(C(C)(C)C)c1O (stereo not shown) [Compound P9]	rat brain N-type calcium channel subunits (α1B+α2δ+β1b) (Rattus norvegicus)	7.82
O=C(CC(c1ccccc1)c1ccccc1)NCC1CCN(C(c2ccccc2)c2ccc(C(F)(F)F)cc2)C1 (stereo not shown) [Compound P39]	rat brain N-type calcium channel subunits (α1B+α2δ+β1b) (Rattus norvegicus)	6.75
O=C(CN(c1ccccc1)c1ccccc1)NCC1CCN(C(c2ccccc2)c2ccccc2)C1 (stereo not shown) [Compound P45]	rat brain N-type calcium channel subunits (α1B+α2δ+β1b) (Rattus norvegicus)	6.29

[I] O=C(NCC1CCN(C(=O)CCCCC(c2ccc(F)cc2)c2ccc(F)cc2)C1)c1cc(C(F)(F)F)cc(C(F)(F)F)c1 (stereo not shown) [Compound P49]
[II] COc1cc(C(=O)NCC2CCN(C(=O)CCCCC(c3ccc(F)cc3)c3ccc(F)cc3)C2)cc(OC)c1OC (stereo not shown) [Compound P3]
[III] O=C(CC(c1ccccc1)c1ccccc1)NCC1CCN(C(c2ccccc2)c2ccc(Cl)cc2)C1 (stereo not shown) [Compound P26]
[IV] O=C(CC(c1ccccc1)c1ccccc1)NCC1CCN(C(c2ccccc2)c2ccccc2)C1 (stereo not shown) [Compound P1]
[V] O=C(CC(c1ccccc1)c1ccccc1)NCC1CCN(C(c2ccccc2)c2ccccc2Cl)C1 (stereo not shown) [Compound P37]
Ask: Ascending by pIC50, please: list the molecules accordingly. I would appreciate it if you listed the labels in the requested order.
Reply: II, III, I, IV, V
(II: 6.38, III: 6.58, I: 6.87, IV: 7.21, V: 7.64)

* * *

Target: human α1G T-type channels (Homo sapiens, UniProt O43497)
Construct: expressed in transfected cells
Sequence (O43497 whole entry): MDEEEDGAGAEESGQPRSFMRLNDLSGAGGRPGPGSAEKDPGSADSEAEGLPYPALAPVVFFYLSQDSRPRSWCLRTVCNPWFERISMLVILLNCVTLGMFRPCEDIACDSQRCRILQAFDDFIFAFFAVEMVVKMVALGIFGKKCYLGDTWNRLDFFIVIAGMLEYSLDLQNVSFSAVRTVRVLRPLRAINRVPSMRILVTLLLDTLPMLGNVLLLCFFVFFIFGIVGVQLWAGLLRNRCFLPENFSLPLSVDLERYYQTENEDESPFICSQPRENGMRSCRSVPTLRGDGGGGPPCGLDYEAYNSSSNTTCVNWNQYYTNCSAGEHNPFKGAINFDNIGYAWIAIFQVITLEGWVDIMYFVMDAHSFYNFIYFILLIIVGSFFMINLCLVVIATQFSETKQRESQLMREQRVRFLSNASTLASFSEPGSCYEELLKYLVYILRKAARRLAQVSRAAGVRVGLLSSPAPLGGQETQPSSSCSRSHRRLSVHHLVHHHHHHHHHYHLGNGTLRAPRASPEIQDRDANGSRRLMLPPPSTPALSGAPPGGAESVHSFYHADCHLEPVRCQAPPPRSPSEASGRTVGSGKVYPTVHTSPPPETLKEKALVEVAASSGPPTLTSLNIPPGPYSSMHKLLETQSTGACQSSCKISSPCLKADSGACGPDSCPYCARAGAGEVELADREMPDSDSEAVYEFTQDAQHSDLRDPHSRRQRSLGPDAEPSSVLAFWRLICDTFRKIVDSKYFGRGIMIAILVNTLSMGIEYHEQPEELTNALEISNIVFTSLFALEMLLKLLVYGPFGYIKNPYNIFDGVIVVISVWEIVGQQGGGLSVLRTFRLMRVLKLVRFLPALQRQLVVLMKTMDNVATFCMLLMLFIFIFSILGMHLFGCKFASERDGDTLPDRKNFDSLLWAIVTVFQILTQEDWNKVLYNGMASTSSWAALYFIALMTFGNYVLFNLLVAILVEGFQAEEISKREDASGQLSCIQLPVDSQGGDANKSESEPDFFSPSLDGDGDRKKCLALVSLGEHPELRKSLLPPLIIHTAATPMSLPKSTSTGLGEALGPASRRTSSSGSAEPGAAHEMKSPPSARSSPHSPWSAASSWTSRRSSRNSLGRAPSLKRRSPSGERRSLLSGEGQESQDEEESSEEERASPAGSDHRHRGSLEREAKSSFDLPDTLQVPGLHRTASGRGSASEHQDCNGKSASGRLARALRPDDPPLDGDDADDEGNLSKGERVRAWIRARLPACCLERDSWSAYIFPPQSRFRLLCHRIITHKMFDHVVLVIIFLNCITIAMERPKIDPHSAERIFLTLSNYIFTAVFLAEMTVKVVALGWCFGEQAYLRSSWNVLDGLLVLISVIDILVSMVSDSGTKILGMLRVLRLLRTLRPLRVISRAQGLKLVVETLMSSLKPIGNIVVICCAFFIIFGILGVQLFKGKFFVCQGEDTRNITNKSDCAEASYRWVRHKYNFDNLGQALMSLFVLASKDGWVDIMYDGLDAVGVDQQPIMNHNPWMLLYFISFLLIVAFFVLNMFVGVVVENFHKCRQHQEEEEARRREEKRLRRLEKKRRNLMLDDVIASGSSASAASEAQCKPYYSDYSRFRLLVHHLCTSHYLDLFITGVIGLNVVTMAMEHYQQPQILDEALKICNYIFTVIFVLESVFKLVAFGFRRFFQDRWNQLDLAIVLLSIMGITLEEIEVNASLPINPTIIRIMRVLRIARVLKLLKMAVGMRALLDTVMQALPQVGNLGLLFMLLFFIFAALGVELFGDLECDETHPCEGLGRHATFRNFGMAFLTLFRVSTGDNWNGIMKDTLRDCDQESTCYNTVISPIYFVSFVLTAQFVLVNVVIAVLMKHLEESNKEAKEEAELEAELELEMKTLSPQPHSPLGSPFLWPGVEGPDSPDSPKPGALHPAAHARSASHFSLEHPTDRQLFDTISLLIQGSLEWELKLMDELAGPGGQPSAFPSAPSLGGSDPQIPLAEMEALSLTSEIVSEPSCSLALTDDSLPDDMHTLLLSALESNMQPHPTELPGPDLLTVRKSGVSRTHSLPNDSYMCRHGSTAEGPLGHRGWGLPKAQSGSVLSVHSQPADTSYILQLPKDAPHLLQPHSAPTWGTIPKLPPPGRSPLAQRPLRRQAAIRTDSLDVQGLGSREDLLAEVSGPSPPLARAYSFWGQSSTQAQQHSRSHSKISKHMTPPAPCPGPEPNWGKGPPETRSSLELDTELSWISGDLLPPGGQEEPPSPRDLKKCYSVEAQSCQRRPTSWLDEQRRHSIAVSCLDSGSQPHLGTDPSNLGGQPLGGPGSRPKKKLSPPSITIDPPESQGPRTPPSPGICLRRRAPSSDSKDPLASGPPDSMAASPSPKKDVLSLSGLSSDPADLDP
Assay: Block of α1G T-type channels, whole-cell patch clamp in HEK cells
Type: cell-based
Conditions: non-inactivating protocol, pre-pulse −100 mV (resting block); read-out: IC50 at −100 mV
Assay endpoint: IC50 (nM)

[P] O=C(CC(c1ccccc1)c1ccccc1)N1CCC(CNC(c2ccccc2)c2ccccc2)C1 (stereo not drawn) [Compound P2]
[Q] COc1cc(C(=O)NCC2CCN(C(=O)CCCCC(c3ccc(F)cc3)c3ccc(F)cc3)C2)cc(OC)c1OC (stereo not drawn) [Compound P3]
[R] CN(C(=O)CN(CC(=O)N(C)c1ccccc1)CC1CCN(C(c2ccccc2)c2ccccc2)C1)c1ccccc1 (stereo not drawn) [Compound P60]
Ask: Sort (3 molecules) by IC50: min first. I would appreciate it if you listed the labels in the requested order.
Reply: Q, P, R
(Q: 86 nM, P: 326 nM, R: 618 nM)

[I] COc1c(C(C)(C)C)cc(C(=O)N2CCC(CNC(=O)CCCCC(c3ccc(F)cc3)c3ccc(F)cc3)C2)cc1C(C)(C)C (stereo not drawn) [Compound P11]
[II] CN(Cc1cc(C(F)(F)F)cc(C(F)(F)F)c1)CC1CCN(C(=O)CCCCC(c2ccc(F)cc2)c2ccc(F)cc2)C1 (stereo not drawn) [Compound P57]
Ask: Between I and II , which one shows the smaller IC50 number? Please identify the chosen entry by its label.
Reply: I

[P] O=C(NCC1CCN(C(c2ccccc2)c2ccccc2)C1)NC(c1ccccc1)c1ccccc1 (stereo not drawn) [Compound P47]
[Q] COc1c(C(C)(C)C)cc(C(=O)NCC2CCN(C(=O)CCCCC(c3ccc(F)cc3)c3ccc(F)cc3)C2)cc1C(C)(C)C (stereo not drawn) [Compound P13]
[R] O=C(COc1ccc(F)cc1F)NCC1CCN(C(=O)CCCCC(c2ccc(F)cc2)c2ccc(F)cc2)C1 (stereo not drawn) [Compound P31]
Ask: Ordering criterion: IC50; begin with the maximum. I would appreciate it if you listed the labels in the requested order.
Reply: R, P, Q
(R: 460 nM, P: 24 nM, Q: 1.5 nM)

[A] c1ccc(C(c2ccccc2)N2CCC(CN(CCN(c3ccccc3)c3ccccc3)CCN(c3ccccc3)c3ccccc3)C2)cc1 (stereo not drawn) [Compound P59]
[B] O=C(CC(c1ccccc1)c1ccccc1)NCC1CCN(C(c2ccccc2)c2cccc(Cl)c2)C1 (stereo not drawn) [Compound P38]
[C] O=C(CC(c1ccccc1)c1ccccc1)NCC1CCN(C(c2ccccc2)c2ccc(C(F)(F)F)cc2)C1 (stereo not drawn) [Compound P39]
Ask: Ascending by IC50, please: list the molecules accordingly. I would appreciate it if you listed the labels in the requested order.
Reply: C, B, A

[I] COc1cc(CN(C)CC2CCN(C(=O)CCCCC(c3ccc(F)cc3)c3ccc(F)cc3)C2)cc(OC)c1OC (stereo not drawn) [Compound P58]
[II] O=C(CN(c1ccccc1)c1ccccc1)NCC1CCN(C(c2ccccc2)c2ccccc2)C1 (stereo not drawn) [Compound P45]
Ask: I need your help: which of the pair I , II has higher IC50? Please identify the chosen entry by its label.
Reply: II
(II: 410 nM, I: 79 nM)

[I] CN(CCN(c1ccccc1)c1ccccc1)CC1CCN(C(c2ccccc2)c2ccccc2)C1 (stereo not drawn) [Compound P55]
[II] O=C(CN(CC(=O)N(c1ccccc1)c1ccccc1)CC1CCN(C(c2ccccc2)c2ccccc2)C1)N(c1ccccc1)c1ccccc1 (stereo not drawn) [Compound P46]
Ask: Between I and II , which one shows the smaller IC50 number? Please identify the chosen entry by its label.
Reply: II

[A] O=C(CC(c1ccccc1)c1ccccc1)NCC1CCN(C(c2ccccc2)c2ccc(Cl)cc2)C1 (stereo not drawn) [Compound P26]
[B] COc1c(C(C)(C)C)cc(C(=O)NCC2CCN(C(=O)CCCCC(c3ccc(F)cc3)c3ccc(F)cc3)C2)cc1C(C)(C)C (stereo not drawn) [Compound P42]
[C] CC(C)(C)c1cc(C(=O)NCC2CCN(C(=O)CCCCC(c3ccc(F)cc3)c3ccc(F)cc3)C2)cc(C(C)(C)C)c1 (stereo not drawn) [Compound P17]
[D] CC(C)(C)c1cc(C(=O)NCC2CCN(C(=O)CCCCC(c3ccc(F)cc3)c3ccc(F)cc3)C2)cc(C(C)(C)C)c1 (stereo not drawn) [Compound P44]
Ask: Ordering criterion: IC50; begin with the maximum. I would appreciate it if you listed the labels in the requested order.
Reply: A, B, D, C
(A: 137 nM, B: 94 nM, D: 52 nM, C: 29 nM)

[P] O=C(CC(c1ccccc1)c1ccccc1)NCC1CCN(C(c2ccccc2)c2ccccc2Cl)C1 (stereo not drawn) [Compound P37]
[Q] Cc1cc(C)cc(NCC(=O)NCC2CCN(C(=O)CCCCC(c3ccc(F)cc3)c3ccc(F)cc3)C2)c1 (stereo not drawn) [Compound P40]
[R] O=C(NCC1CCN(C(=O)CCCCC(c2ccc(F)cc2)c2ccc(F)cc2)C1)c1cc(C(F)(F)F)cc(C(F)(F)F)c1 (stereo not drawn) [Compound P49]
Ask: Ordering criterion: IC50; begin with the maximum. I would appreciate it if you listed the labels in the requested order.
Reply: Q, P, R
